Where do these numbers come from? They come from patent US7897602B2.

Provide the reported inhibition at 1 µM of each item.
Target: Aurora A kinase (Homo sapiens, UniProt O14965)
Construct: purchased Upstate
Sequence (O14965 1-403): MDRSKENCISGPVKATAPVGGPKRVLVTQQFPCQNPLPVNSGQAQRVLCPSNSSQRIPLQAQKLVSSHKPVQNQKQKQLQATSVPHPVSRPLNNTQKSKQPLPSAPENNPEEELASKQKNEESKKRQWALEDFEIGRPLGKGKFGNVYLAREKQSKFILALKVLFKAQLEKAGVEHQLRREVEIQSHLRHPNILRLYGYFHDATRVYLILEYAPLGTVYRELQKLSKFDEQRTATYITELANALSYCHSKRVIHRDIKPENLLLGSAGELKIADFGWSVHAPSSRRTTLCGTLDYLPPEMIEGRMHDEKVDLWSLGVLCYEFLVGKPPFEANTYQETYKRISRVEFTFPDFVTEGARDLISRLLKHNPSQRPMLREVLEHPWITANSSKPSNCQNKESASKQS
Assay: Aurora A kinase assay ([γ-33P]ATP, CHOCKtide substrate)
Type: biochemical
Details: 1.0 μM test compound
Numbers only, in %.

CCOC(=O)CCc1c(/C=C2\C(=O)Nc3ccc(NS(=O)(=O)Cc4ccccc4)cc32)[nH]c2c1C(=O)CCC2 [DCB-70197]: 48.7
COc1ccc(-c2ccc3c(c2)/C(=C/c2[nH]c4c(c2CCC(=O)O)C(=O)CCC4)C(=O)N3)cc1OC [DCB-70068]: 54
CCOC(=O)CCc1c(/C=C2\C(=O)Nc3ccc(NS(=O)(=O)c4ccccc4)cc32)[nH]c2c1C(=O)CC(C)(C)C2 [DCB-70168]: 53.4
O=C(O)CCc1c(/C=C2\C(=O)Nc3ccc(S(=O)(=O)N4CCCC4)cc32)[nH]c2c1C(=O)CCC2 [DCB-70087]: 99.7
CC1(C)CC(=O)c2c([nH]c(/C=C3\C(=O)Nc4ccc(S(=O)(=O)N5CCc6ccccc65)cc43)c2CCC(=O)O)C1 [DCB-70161]: 78.8

State recorded inhibition at 1 µM for all listed compounds.
1. O=C(O)CCc1c(/C=C2\C(=O)Nc3ccc(NS(=O)(=O)c4cc(F)cc(F)c4)cc32)[nH]c2c1C(=O)CCC2 [DCB-70190]
2. CCOC(=O)CCc1c(/C=C2\C(=O)Nc3ccc(NS(=O)(=O)c4cc(F)cc(F)c4)cc32)[nH]c2c1C(=O)CCC2 [DCB-70189]
3. CCOC(=O)CCc1c(/C=C2\C(=O)Nc3ccc(NC(=O)Nc4ccc(F)cc4)cc32)[nH]c2c1C(=O)CCC2 [DCB-70136]
4. CCOC(=O)CCc1c(/C=C2\C(=O)Nc3ccc(OC)cc32)[nH]c2c1C(=O)CCC2 [DCB-70166]
5. O=C(O)CCc1c(/C=C2\C(=O)Nc3ccc(NS(=O)(=O)c4ccccc4)cc32)[nH]c2c1C(=O)CCCC2 [DCB-70147]
6. O=C(O)CCc1c(C=C2C(=S)Nc3cc(Br)ccc32)[nH]c2c1C(=O)CCC2 [DCB-70086]

### Response
1. 97
2. 91.4
3. 26.4
4. 48.8
5. 91.9
6. 5.8

###

I'd be grateful if you could share measured inhibition at 0.1 µM for these entries.
Target: Flt3 kinase (Homo sapiens, UniProt P36888)
Construct: recombinant N-terminal 6×His-tagged Flt3 kinase domain construct expressed from baculovirus; 6xHis (N); made in house
Sequence (P36888 610-943 limits assumed): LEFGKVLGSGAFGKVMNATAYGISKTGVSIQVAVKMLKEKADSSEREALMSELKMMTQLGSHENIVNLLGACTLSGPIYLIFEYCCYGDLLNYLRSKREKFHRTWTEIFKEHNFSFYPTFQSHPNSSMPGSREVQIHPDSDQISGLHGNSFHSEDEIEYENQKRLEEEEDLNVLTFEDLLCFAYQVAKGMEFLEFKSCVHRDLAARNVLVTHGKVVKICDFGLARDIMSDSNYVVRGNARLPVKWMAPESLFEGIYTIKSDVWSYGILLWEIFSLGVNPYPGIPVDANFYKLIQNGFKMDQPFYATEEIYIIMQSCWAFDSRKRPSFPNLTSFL
Assay: Flt3 kinase assay (33P incorporation into Poly(Glu-Tyr))
Type: biochemical
Details: 100 nM test compound; read-out: Inhibition at 100 nM (%) Flt-3
Method: Inhibition of Flt3 kinase activity by compounds disclosed herein was quantified by measuring the amount of [^33P] incorporated into the substrate in the presence of a test compound. […] The plate was then sealed and counted using a TopCount scintillation detector (PerkinElmer). The percentage of inhibition rate of the test compound was calculated by dividing the retained radioactivity of the test sample with the retained radioactivity of the control sample and shown in Table 3.

// below: answered molecules
CCOC(=O)CCc1c(/C=C2\C(=O)Nc3ccc(NC(=O)c4ccc(F)cc4)cc32)[nH]c2c1C(=O)CCC2 [DCB-70074]: -1.3%
CCOC(=O)CCc1c(/C=C2\C(=O)Nc3ccc([N+](=O)[O-])cc32)[nH]c2c1C(=O)CCC2 [DCB-70062]: 91.6%
O=C(O)CCc1c(C=C2C(=S)Nc3ccccc32)[nH]c2c1C(=O)CCC2 [DCB-70084]: -2.6%

Moving on to the next molecule.
// inhibition at 0.1 µM lookup, molecule = O=C(O)CCc1c(/C=C2\C(=O)Nc3ccc(S(=O)(=O)N4CCCC4)cc32)[nH]c2c1C(=O)CCC2 [DCB-70087] , result: 1.4%

###

Record form. Attribute: inhibition at 0.5 µM. Fill in for each entry.
biological target: VEGFR2 kinase (Homo sapiens); construct: recombinant N-terminal 6×His-tagged VEGFR2 kinase domain construct expressed by baculovirus; 6xHis (N); made in house; assay: VEGFR2 kinase assay (33P incorporation into Poly(Glu-Tyr)); format: biochemical; conditions: 500 nM test compound; read-out: Inhibition at 500 nM (%) VEGFr-2
Sequence (P35968 834-1162 limits assumed): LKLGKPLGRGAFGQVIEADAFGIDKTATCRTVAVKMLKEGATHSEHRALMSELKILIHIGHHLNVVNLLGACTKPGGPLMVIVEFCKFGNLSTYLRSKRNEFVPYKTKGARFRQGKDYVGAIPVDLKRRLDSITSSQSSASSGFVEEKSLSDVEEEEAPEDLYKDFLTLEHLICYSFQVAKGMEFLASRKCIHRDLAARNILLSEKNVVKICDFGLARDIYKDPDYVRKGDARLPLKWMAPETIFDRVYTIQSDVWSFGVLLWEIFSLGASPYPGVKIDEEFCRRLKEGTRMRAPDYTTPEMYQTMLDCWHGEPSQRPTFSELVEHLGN
One number for each entry, in %.

Below, 3 compounds whose answers are already recorded.
O=C(O)CCc1c(/C=C2\C(=O)Nc3ccc(NS(=O)(=O)c4ccc(F)cc4)cc32)[nH]c2c1C(=O)CCC2 [DCB-70145]: 66.6
O=C1Nc2ccc(F)cc2/C1=C/c1[nH]c2c(c1CCC(=O)N1CCOCC1)C(=O)CCC2 [DCB-70125]: 83.4
CCOC(=O)CCc1c(/C=C2\C(=O)Nc3cc(-c4cc5ccccc5s4)ccc32)[nH]c2c1C(=O)CCC2 [DCB-70079]: 15.6

Provide inhibition at 0.5 µM for all items below, preserving their order.
1. CCOC(=O)CCc1c(/C=C2\C(=O)Nc3cc(-c4ccc(O)c(OC)c4)ccc32)[nH]c2c1C(=O)CCC2 [DCB-70081]
2. O=C(O)CCc1c(/C=C2\C(=O)Nc3ccc(NC(=O)c4ccccc4)cc32)[nH]c2c1C(=O)CCC2 [DCB-70097]
3. CNS(=O)(=O)c1ccc2c(c1)/C(=C/c1[nH]c3c(c1CCC(=O)N1CCN(C)CC1)C(=O)CCC3)C(=O)N2 [DCB-70117]
4. CN(c1cccc(Cl)c1)S(=O)(=O)c1ccc2c(c1)/C(=C/c1[nH]c3c(c1CCC(=O)O)C(=O)CCCC3)C(=O)N2 [DCB-70148]

### Response
80
62.5
43.3
67.6

###

biological target: c-Met kinase (Homo sapiens, UniProt P08581); construct: recombinant N-terminal 6×His-tagged c-Met kinase domain construct expressed from baculovirus; 6xHis (N); made in house; assay: c-Met kinase assay (33P incorporation into Poly(Glu-Tyr)); assay type: biochemical; conditions: 500 nM test compound
Sequence (P08581 1078-1345 limits assumed): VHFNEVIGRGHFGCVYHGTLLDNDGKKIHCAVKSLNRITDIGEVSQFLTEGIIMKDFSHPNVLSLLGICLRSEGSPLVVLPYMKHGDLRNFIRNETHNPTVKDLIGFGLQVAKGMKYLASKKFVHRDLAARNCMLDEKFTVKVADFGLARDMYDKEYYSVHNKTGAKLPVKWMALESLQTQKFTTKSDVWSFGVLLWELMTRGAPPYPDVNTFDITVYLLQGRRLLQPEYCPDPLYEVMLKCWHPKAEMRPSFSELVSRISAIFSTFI
quantity: inhibition at 0.5 µM

Examples with answers:
O=C(O)CCc1c(/C=C2\C(=O)Nc3ccc(NC(=O)c4ccc(F)cc4)cc32)[nH]c2c1C(=O)CCC2: 21.8%
CCOC(=O)CCc1c(/C=C2\C(=O)Nc3cc(-c4ccc5c(c4)OCO5)ccc32)[nH]c2c1C(=O)CCC2: 12.5%

Report inhibition at 0.5 µM for each item below.
1. O=C(O)CCc1c(/C=C2\C(=O)Nc3cc(-c4cc5ccccc5s4)ccc32)[nH]c2c1C(=O)CCC2
2. CCN(CC)CCNC(=O)CCc1c(/C=C2\C(=O)Nc3ccc(F)cc32)[nH]c(C)c1C(C)=O

### Response
["-21.3%", "15.5%"]

Here are 4 compounds. What values of inhibition at 0.5 µM were reported for them?
1. CC1(C)CC(=O)c2c([nH]c(/C=C3\C(=O)Nc4ccc(S(=O)(=O)N5CCc6ccccc65)cc43)c2CCC(=O)O)C1
2. CCN(CC)CCCc1c(/C=C2\C(=O)Nc3ccc(S(=O)(=O)Cc4c(Cl)cccc4Cl)cc32)[nH]c2c1C(=O)CCC2
3. CC(=O)c1c(C)[nH]c(/C=C2\C(=O)Nc3ccc(F)cc32)c1CCC(=O)N1CCN(C)CC1
4. O=C1Nc2ccc(F)cc2/C1=C/c1[nH]c2c(c1CCC(=O)N1CCOCC1)C(=O)CCC2

### Response
["59.7%", "95.6%", "21.1%", "2.9%"]

Respectfully, I request inhibition at 0.5 µM for each entry included below.
1. CNC(=O)CCc1c(/C=C2\C(=O)Nc3ccc(S(=O)(=O)Cc4c(Cl)cccc4Cl)cc32)[nH]c2c1C(=O)CCC2
2. CCOC(=O)CCc1c(/C=C2\C(=O)Nc3ccc(NS(=O)(=O)c4ccccc4)cc32)[nH]c(C)c1C(C)=O
3. CCOC(=O)CCc1c(/C=C2\C(=O)Nc3ccc(NCc4ccc(F)cc4)cc32)[nH]c2c1C(=O)CCC2
4. O=C(O)CCc1c(/C=C2\C(=O)Nc3ccc(-c4ccc(F)cc4)cc32)[nH]c2c1C(=O)CCC2
5. CCOC(=O)CCc1c(/C=C2\C(=O)Nc3cc(F)ccc32)[nH]c2c1C(=O)CCC2
6. CN(C)S(=O)(=O)c1ccc2c(c1)/C(=C/c1[nH]c3c(c1CCC(=O)O)C(=O)CCC3)C(=O)N2
7. CC(=O)c1c(C)[nH]c(/C=C2\C(=O)Nc3ccc(NS(=O)(=O)c4ccccc4)cc32)c1CCC(=O)O

### Response
1: 85.6%; 2: 18.8%; 3: 10.1%; 4: -10.8%; 5: 19.1%; 6: -6.7%; 7: 15.2%

Hey, can you go through the list below and give me inhibition at 0.5 µM for every item?
1. CCS(=O)(=O)Nc1ccc2c(c1)/C(=C/c1[nH]c3c(c1CCC(=O)O)C(=O)CCC3)C(=O)N2
2. O=C(O)CCc1c(/C=C2\C(=O)Nc3ccc(S(=O)(=O)Cc4c(Cl)cccc4Cl)cc32)[nH]c2c1C(=O)CCC2
3. O=C(O)CCc1c(/C=C2\C(=O)Nc3cc(-c4ccc(O)c(O)c4)ccc32)[nH]c2c1C(=O)CCC2

### Response
["31.8%", "91.6%", "-54.1%"]

For each of the compounds below, state inhibition at 0.5 µM.
1. CC(=O)c1c(C)[nH]c(/C=C2\C(=O)Nc3ccc(S(=O)(=O)N4CCc5ccccc54)cc32)c1CCC(=O)N1CCN(C)CC1
2. O=C(O)CCc1c(/C=C2\C(=O)Nc3ccc(S(=O)(=O)Cc4ccccc4)cc32)[nH]c2c1C(=O)CCC2
3. CCOC(=O)CCc1c(/C=C2\C(=O)Nc3ccc(NC(=O)Nc4ccc(F)cc4)cc32)[nH]c2c1C(=O)CCC2

### Response
77.4%
65.3%
-7.7%

# return inhibition at 0.5 µM for each item in the list
1. CCOC(=O)CCc1c(/C=C2\C(=O)Nc3ccc(S(=O)(=O)N4CCc5ccccc54)cc32)[nH]c2c1C(=O)CCC2
2. O=C(O)CCc1c(/C=C2\C(=O)Nc3ccc(S(=O)(=O)Nc4ccc(F)c(Cl)c4)cc32)[nH]c2c1C(=O)CCCC2
3. CCOC(=O)CCc1c(/C=C2\C(=O)Nc3ccc(NC(=O)Nc4cccc5ccccc45)cc32)[nH]c2c1C(=O)CCC2
4. CCOC(=O)CCc1c(/C=C2\C(=O)Nc3cc(-c4ccc(O)cc4)ccc32)[nH]c2c1C(=O)CCC2

### Response
1: 75.3%; 2: 8.4%; 3: 5%; 4: 15.2%

Give one value of inhibition at 0.5 µM per listed compound.
1. O=C(O)CCc1c(/C=C2\C(=O)Nc3cc(-c4ccc(O)cc4)ccc32)[nH]c2c1C(=O)CCC2
2. O=C(O)CCc1c(/C=C2\C(=O)Nc3ccc(NS(=O)(=O)c4ccccc4)cc32)[nH]c2c1C(=O)CCC2
3. COc1ccc2c(c1)/C(=C/c1[nH]c3c(c1CCC(=O)O)C(=O)CCC3)C(=O)N2
4. CCOC(=O)CCc1c(/C=C2\C(=O)Nc3cc(-c4cc5ccccc5s4)ccc32)[nH]c2c1C(=O)CCC2

### Response
1. 21.8%
2. 37.9%
3. 11.8%
4. 21.4%
